Source of measurements: patent US20250144067A1

system: NCI-H292 lung cancer cells; experiment: FDA drug screening, complete media vs cholesterol-free media without statin (TABLE 1); assay type: cell-based, human; conditions: NCI-H292 cells, complete media
Structures can show the parent of a compound that is named as a salt.
Complete listing for selected molecules.

molecule	Complete
COc1ccccc1N1CCN(CCCNc2cc(=O)n(C)c(=O)n2C)CC1 [Urapidil (hydrochloride)]	0.7335
CC1=C(C(=O)O)N2C(=O)[C@@H](NC(=O)[C@H](N)c3ccccc3)[C@H]2SC1 [Cephalexin (monohydrate)]	1.062
CCC(=O)OCC(=O)[C@@]1(OC(=O)CC)[C@@H](C)C[C@H]2[C@@H]3CCC4=CC(=O)C=C[C@]4(C)[C@@]3(F)[C@@H](O)C[C@@]21C [Betamethasone dipropionate]	0.6317
C=CC1=C(C(=O)O)N2C(=O)[C@@H](NC(=O)/C(=N\O)c3csc(N)n3)[C@H]2SC1	0.9998
CN1[C@@H]2CC[C@H]1C[C@@H](OC(=O)[C@H](CO)c1ccccc1)C2	0.9714
CCCN(CCC)CCc1cccc2c1CC(=O)N2 [Ropinirole (hydrochloride)]	0.7874
CCC(C)(C)c1ccc(CC(C)CN2C[C@@H](C)O[C@@H](C)C2)cc1 (stereo partly shown) [Amorolfine (hydrochloride)]	0.8449
